# SYSTEM_UNDER_TEST: human Prostaglandin D Synthase (GST2) (Homo sapiens, UniProt O60760)
# Construct: the open reading frame of human Prostaglandin D Synthase was amplified from cDNA; made in house; host or cells: E. coli TOP10F'
# Sequence (O60760 whole entry): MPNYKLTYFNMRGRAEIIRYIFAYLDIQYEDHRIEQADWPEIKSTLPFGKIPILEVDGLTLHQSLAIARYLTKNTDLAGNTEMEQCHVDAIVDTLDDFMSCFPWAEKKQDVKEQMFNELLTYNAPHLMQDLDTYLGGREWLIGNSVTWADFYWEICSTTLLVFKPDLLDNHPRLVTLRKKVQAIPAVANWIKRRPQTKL
# ASSAY_INFO: Homogeneous biochemical assay of human Prostaglandin D Synthase (GST2) based on its glutathion-S-transferase activity (GSH conjugation to monochlorobimane, fluorescence)
# EXPERIMENTAL_SETUP: given beside the compound name in Examples 1 to 167; read-out: Potency Range (GST2 IC50)
# From the text: Homogeneous, Biochemical Assay Monitoring the Activity of Human Prostaglandin D Synthase Based on the Glutathion-S-Transferase Activity of the Enzyme Prostaglandin D2 synthesis by Prostaglandin D synthase (GST2) requires transfer of Glutathion (GSH) to the substrate, Prostaglandin H2. […] Therefore, the enzymatic reaction can be monitored by total fluorescence measurement. In brief, the open reading frame of human Prostaglandin D Synthase was amplified from cDNA using the primer pair: […]
pIC50: −log10 of the molar value.
Documented pIC50 across a set of compounds

{"COMPOUND_STRUCTURE_STRING": "O=C(Nc1nnc(-c2ccncc2)s1)N1CCN(C(=O)c2cccc(F)c2)CC1", "pIC50": "7.00 to 7.96"}
{"COMPOUND_STRUCTURE_STRING": "O=C(Nc1ccc(C(F)(F)F)cc1)N1CCN(C(=O)c2cccc(Cl)c2)CC1", "pIC50": "6.00 to 7.00"}
{"COMPOUND_STRUCTURE_STRING": "O=C(c1ccc(F)cc1)N1CCN(C(=S)Nc2ccc(Oc3ccccc3)cc2)CC1", "pIC50": "6.00 to 7.00"}
{"COMPOUND_STRUCTURE_STRING": "O=C(c1cccc(F)n1)N1CCN(C(=S)Nc2ccc(OC(F)F)cc2)CC1", "pIC50": "6.00 to 7.00"}
{"COMPOUND_STRUCTURE_STRING": "O=C(Nc1nc2ccccc2[nH]1)N1CCN(C(=O)c2cccc(F)c2)CC1", "pIC50": "6.00 to 7.00"}
{"COMPOUND_STRUCTURE_STRING": "Cc1nc(-c2ccc(NC(=O)N3CCN(C(=O)c4cccc(F)c4)CC3)cc2)cs1", "pIC50": "7.00 to 7.96"}
{"COMPOUND_STRUCTURE_STRING": "O=C(Nc1ccc2sccc2c1)N1CCN(C(=O)c2cccc(F)c2)CC1", "pIC50": "7.00 to 7.96"}
{"COMPOUND_STRUCTURE_STRING": "Cc1ccccc1C(=O)N1CCN(C(=O)Nc2ccc(F)cc2)CC1", "pIC50": "6.00 to 7.00"}
{"COMPOUND_STRUCTURE_STRING": "O=C(Nc1ccc2nc(NC(=O)N3CCN(C(=O)c4cccc(F)c4)CC3)sc2c1)c1ccccn1", "pIC50": "7.00 to 7.96"}
{"COMPOUND_STRUCTURE_STRING": "O=C(Nc1ccc(F)nc1)c1ccc(NC(=O)N2CCN(C(=O)c3cccc(F)c3)CC2)cc1F", "pIC50": "6.00 to 7.00"}
{"COMPOUND_STRUCTURE_STRING": "CC(C)C(=O)N1CCN(c2ccc(NC(=O)N3CCN(C(=O)c4cc(F)ccc4F)CC3)cc2F)CC1", "pIC50": "6.00 to 7.00"}
{"COMPOUND_STRUCTURE_STRING": "O=C(c1cccc(F)n1)N1CCN(C(=S)Nc2ccc(N3CCOCC3)c(F)c2)CC1", "pIC50": "6.00 to 7.00"}
{"COMPOUND_STRUCTURE_STRING": "COC(=O)c1cc(NC(=O)N2CCN(C(=O)c3cccc(F)c3)CC2)ccc1F", "pIC50": "6.00 to 7.00"}
{"COMPOUND_STRUCTURE_STRING": "Cc1ccc(NC(=S)N2CCN(C(=O)c3ccccc3)CC2)cc1", "pIC50": "6.00 to 7.00"}
{"COMPOUND_STRUCTURE_STRING": "O=C(Nc1nc2cc(Cl)ccc2o1)N1CCN(C(=O)c2cccc(F)c2)CC1", "pIC50": "6.00 to 7.00"}
{"COMPOUND_STRUCTURE_STRING": "O=C(Nc1ccc(F)nc1)c1ccc(NC(=O)N2CCN(C(=O)c3cccc(F)c3)CC2)cc1", "pIC50": "6.00 to 7.00"}
{"COMPOUND_STRUCTURE_STRING": "O=C(Nc1ccc(NC(=O)N2CCN(C(=O)c3cccc(F)c3)CC2)cc1)C1CCOCC1", "pIC50": "6.00 to 7.00"}
{"COMPOUND_STRUCTURE_STRING": "COC(=O)c1ccc(NC(=S)N2CCN(C(=O)c3ccc(F)cc3)CC2)cc1", "pIC50": "6.00 to 7.00"}
{"COMPOUND_STRUCTURE_STRING": "O=C(Nc1ccc(N2CCN(C(=O)NC3CCCC3)CC2)c(F)c1)N1CCN(C(=O)c2cccc(F)c2)CC1", "pIC50": "7.00 to 7.96"}
{"COMPOUND_STRUCTURE_STRING": "NC(=O)c1ccc(NC(=O)N2CCN(C(=O)c3cccc(F)c3)CC2)cc1", "pIC50": "6.00 to 7.00"}
{"COMPOUND_STRUCTURE_STRING": "O=C(Nc1ccc(Br)c(-c2ccncc2)c1)N1CCN(C(=O)c2cccc(F)c2)CC1", "pIC50": "7.00 to 7.96"}
{"COMPOUND_STRUCTURE_STRING": "O=C(Nc1nc(-c2ccccn2)cs1)N1CCN(C(=O)c2cccc(F)c2)CC1", "pIC50": "7.00 to 7.96"}
{"COMPOUND_STRUCTURE_STRING": "O=C(c1ccccc1)N1CCN(C(=S)Nc2ccc([N+](=O)[O-])cc2)CC1", "pIC50": "7.00 to 7.96"}
{"COMPOUND_STRUCTURE_STRING": "O=C(Nc1cccc(Oc2ccccc2)c1)N1CCN(C(=O)c2cccc(F)c2)CC1", "pIC50": "7.00 to 7.96"}
{"COMPOUND_STRUCTURE_STRING": "CN(C)c1ccc(NC(=S)N2CCN(C(=O)c3cccnc3)CC2)cc1", "pIC50": "6.00 to 7.00"}
{"COMPOUND_STRUCTURE_STRING": "COc1ccc(NC(=S)N2CCN(C(=O)c3ccc(F)cc3)CC2)cc1", "pIC50": "6.00 to 7.00"}
{"COMPOUND_STRUCTURE_STRING": "O=C(Nc1ccc(C(F)(F)F)cc1)N1CCN(C(=O)c2cccc(F)c2)CC1", "pIC50": "6.00 to 7.00"}
{"COMPOUND_STRUCTURE_STRING": "O=C(Nc1cccc(-c2ncn[nH]2)c1)N1CCN(C(=O)c2cccc(F)c2)CC1", "pIC50": "6.00 to 7.00"}
{"COMPOUND_STRUCTURE_STRING": "Cc1nc(-c2cccc(NC(=O)N3CCN(C(=O)c4cccc(F)c4)CC3)c2)cs1", "pIC50": "6.00 to 7.00"}
{"COMPOUND_STRUCTURE_STRING": "COc1ccc2nc(NC(=O)N3CCN(C(=O)c4cccc(F)c4)CC3)sc2c1", "pIC50": "8.00 to 9.00"}
{"COMPOUND_STRUCTURE_STRING": "O=C(Nc1cccc(NC(=O)N2CCN(C(=O)c3cccc(F)c3)CC2)c1)c1ccc[n+]([O-])c1", "pIC50": "6.00 to 7.00"}
{"COMPOUND_STRUCTURE_STRING": "O=C(Nc1cccc(S(=O)(=O)N2CCOCC2)c1)N1CCN(C(=O)c2cccc(F)c2)CC1", "pIC50": "6.00 to 7.00"}
{"COMPOUND_STRUCTURE_STRING": "O=C(Nc1cccc(NS(=O)(=O)c2ccc(F)cc2)c1)N1CCN(C(=O)c2cccc(F)c2)CC1", "pIC50": "6.00 to 7.00"}

---

# SYSTEM_UNDER_TEST: human Prostaglandin D Synthase (GST2) (Homo sapiens, UniProt O60760)
# Construct: the open reading frame of human Prostaglandin D Synthase was amplified from cDNA; made in house; host or cells: E. coli TOP10F'
# ASSAY_INFO: Homogeneous biochemical assay of human Prostaglandin D Synthase (GST2) based on its glutathion-S-transferase activity (GSH conjugation to monochlorobimane, fluorescence)
# EXPERIMENTAL_SETUP: given beside the compound name in Examples 1 to 167; read-out: Potency Range (GST2 IC50)

{"COMPOUND": "CC(C)(C)c1ccc(NC(=S)N2CCN(C(=O)c3ccc(F)cc3)CC2)cc1 [Compound 8]", "IC50": "11 to 100 nM"}
{"COMPOUND": "O=C(Nc1cccc(-c2cccnc2)c1)N1CCN(C(=O)c2cccc(F)c2)CC1 [Compound 87]", "IC50": "101 to 1000 nM"}
{"COMPOUND": "O=C(Nc1ccc(NS(=O)(=O)C2CC2)cc1)N1CCN(C(=O)c2cccc(F)c2)CC1 [Compound 127]", "IC50": "11 to 100 nM"}
{"COMPOUND": "O=C(Nc1ccc(NC(=O)N2CCN(C(=O)c3cccc(F)c3)CC2)cc1)c1ccc(F)nc1 [Compound 117]", "IC50": "101 to 1000 nM"}
{"COMPOUND": "O=C(Nc1ccc(-c2cccnc2)c(F)c1)N1CCN(C(=O)c2cccc(F)c2)CC1 [Compound 147]", "IC50": "11 to 100 nM"}
{"COMPOUND": "O=C(Nc1ccc(NC(=O)N2CCN(C(=O)c3cccc(F)c3)CC2)cc1)c1ccncc1 [Compound 123]", "IC50": "101 to 1000 nM"}
{"COMPOUND": "O=C(Nc1ccc(-c2nnn[nH]2)cc1)N1CCN(C(=O)c2cccc(F)c2)CC1 [Compound 135]", "IC50": "11 to 100 nM"}
{"COMPOUND": "Nc1ccc(NC(=O)N2CCN(C(=O)c3cccc(F)c3)CC2)cc1 [Compound 112]", "IC50": "101 to 1000 nM"}
